biological target: Myo3, P36006; test: SPOT array; conditions: median of control spots 468
Reported SPOT intensity is given for each of the following binders.
reported_property: SPOT intensity

            binder  reported_property  observed
0  PSRRAPLQLPQLVNK     SPOT intensity         0
1  VPPVPLPFGIPPFPM     SPOT intensity       341
2  AIPPPVPNRPGGTTN     SPOT intensity         8
3  TPEIPPPLPPKIMVH     SPOT intensity       304
4  PLRRTVMSLPGNHDI     SPOT intensity        23
5  QTMRQAPKRPDADVA     SPOT intensity        44
6  SKSRLLIELPEGFFT     SPOT intensity         0
